Measured values drawn from patent US9131690B2 for this set.

Measured melting point, listed per entry.

* COc1ccnc(C(=O)N[C@H]2COC(=O)[C@H](Cc3ccc(Cl)cc3)[C@@H](OC(=O)C(C)C)[C@H](C)OC2=O)c1O [Compound 9] | 192 to 194 °C

The molecule listed as COc1ccnc(C(=O)N[C@H]2COC(=O)[C@H](CCOC=O)[C@@H](OC(=O)C(C)C)[C@H](C)OC2=O)c1O [Compound 51] has a reported melting point of 103 to 105 °C

The molecule listed as COc1ccnc(C(=O)N[C@H]2COC(=O)[C@H](CCOC(=O)c3ccc(C(F)(F)F)cc3)[C@@H](OC(=O)C(C)C)[C@H](C)OC2=O)c1OC(C)=O [Compound 68] has a reported melting point of 199 to 200 °C

The molecule listed as COc1ccnc(C(=O)N[C@H]2COC(=O)[C@H](Cc3cccnc3)[C@@H](OC(=O)C(C)C)[C@H](C)OC2=O)c1OC(C)=O [Compound 70] has a reported melting point of 151 to 160 °C

The molecule listed as COc1ccnc(C(=O)N[C@H]2COC(=O)[C@H](CI)[C@@H](OC(=O)C(C)C)[C@H](C)OC2=O)c1O [Compound 11] has a reported melting point of 186 to 191 °C

The molecule listed as COc1ccnc(C(=O)N[C@H]2COC(=O)[C@H](CCOC(=O)c3ccccc3)[C@@H](OC(=O)C(C)C)[C@H](C)OC2=O)c1OCOC(=O)C(C)C [Compound 19] has a reported melting point of 48 to 50 °C
